The reported numbers originate from patent US20250340532A1.

Assay: Pharmacokinetic test in beagle dogs
Format: in vivo
Conditions: male, beagle, dog, iv, plasma, i.v. 1 mg/kg, read-out: Vdss
REPORTED_METRIC: Vd (L/kg)

Cc1nc(N2CCC(C3CN(C4CC(C)(C(=O)O)C4)CCO3)CC2)nc(NC(C)c2ccc(Cl)cc2Cl)c1Cl (single isomer, unassigned) [Compound 73 isomer 3] : 1.2
CC(Nc1cc(N2CCC(C3CN(C4CC(C)(C(=O)O)C4)CCO3)CC2)ccc1Cl)c1ccc(Cl)cc1Cl (single isomer, unassigned) [Compound 82 isomer 3] : 1.04

###

Test: Pharmacokinetic test in mice
Format: in vivo, C57 mice
Conditions: male, C57, mouse, iv, plasma, i.v. 2.5 mg/kg, read-out: Vdss
REPORTED_METRIC: Vd (L/kg)

Study these solved cases before continuing.
Cc1nc(N2CCC(C3CN(CCC(=O)O)CCO3)CC2)nc(NC(C)c2ccc(Cl)cc2Cl)c1Cl (single isomer, unassigned) [Compound 76 isomer 2] : 1.44
C[C@@H](Nc1cc(N2CC(C3CN(C4CC(C)(C(=O)O)C4)CCO3)C2)ccc1Cl)c1ccc(Cl)cc1Cl (single isomer, unassigned) [Compound 83 isomer 1] : 1.77

[1] Cc1nc(N2CCC(C3CN(C4CC(C)(C(=O)O)C4)CCO3)CC2)nc(NC(C)c2ccc(Cl)cc2Cl)c1Cl (single isomer, unassigned) [Compound 73 isomer 3]
[2] Cc1nc(N2CC(F)(C3CN(C4CC(C)(C(=O)O)C4)CCO3)C2)nc(N[C@H](C)c2ccc(Cl)cc2Cl)c1Cl (single isomer, unassigned) [Compound 64 isomer 3]
I'd appreciate it if you could identify which of 1 and 2 has the greater Vd. Your choice should be expressed through its label. 2
(2: 1.94 L/kg, 1: 1.04 L/kg)

###

Biological target: CCR4 (Homo sapiens, UniProt P51679)
Sequence (P51679 whole entry): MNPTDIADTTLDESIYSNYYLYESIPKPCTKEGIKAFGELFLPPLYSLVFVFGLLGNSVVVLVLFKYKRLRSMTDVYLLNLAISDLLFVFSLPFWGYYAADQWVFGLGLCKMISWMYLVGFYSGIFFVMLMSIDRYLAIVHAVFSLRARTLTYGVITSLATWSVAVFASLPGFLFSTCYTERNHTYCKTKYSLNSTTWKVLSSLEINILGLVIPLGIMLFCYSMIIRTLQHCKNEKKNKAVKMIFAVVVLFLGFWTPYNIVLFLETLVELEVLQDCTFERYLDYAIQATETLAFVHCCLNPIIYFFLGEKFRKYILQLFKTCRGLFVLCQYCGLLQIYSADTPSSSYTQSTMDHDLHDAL
Assay: Calcium flow detected by FLIPR
Settings: CCR4/HEK293 cells, agonist CCL17, Fluo-4 calcium signal
Entries and their IC50

Consider the reported IC50 for these molecules:
C#Cc1ccc(C(C)Nc2cc(N3CC([C@H]4CCCN([C@H]5C[C@](C)(C(=O)O)C5)C4)C3)ncn2)c(Cl)c1 (some centres unmarked) : < 100 nM
Cc1nc(N2CCC(C3CN(C4CC(C)(C(=O)O)C4)CCN3C)CC2)nc(NC(C)c2ccc(Cl)cc2Cl)c1Cl (single isomer, unassigned) [Compound 105 isomer 3] : < 100 nM
C[C@@H](Nc1cc(N2CC([C@H]3CCCN([C@H]4C[C@](C)(C(=O)O)C4)C3)C2)nc2nccn12)c1ccc(Cl)cc1Cl : < 100 nM
C[C@@H](Nc1nc(N2CC([C@H]3CCCN([C@H]4C[C@](C)(C(=O)O)C4)C3)C2)c2sccc2n1)c1ccc(Cl)cc1Cl : < 100 nM

Supply IC50 value. Item: Cc1nc(N2CC(C3CN(C4CC(C)(C#N)C4)CCO3)C2)nc(N[C@H](C)c2ccc(Cl)cc2Cl)c1Cl (some centres unmarked) 100 to 500 nM

Supply measured IC50 of Cc1nc(N2CC([C@@H]3CN(CCO)CCO3)C2)nc(N[C@H](C)c2ccc(Cl)cc2Cl)c1Cl in your reply. < 100 nM

Specify IC50 for Cc1nc(N2CCC(C3CN(CCC(=O)O)CCO3)CC2)nc(NC(C)c2ccc(Cl)cc2Cl)c1Cl (single isomer, unassigned) [Compound 76 isomer 2] and stop. < 100 nM

Return the recorded IC50 value; entry: C[C@@H](Nc1nc2c(c(N3CC([C@H]4CCCN([C@H]5C[C@](C)(C(=O)O)C5)C4)C3)n1)CCC2)c1ccc(Cl)cc1Cl 100 to 500 nM
